Target: h12/15-LOX (Homo sapiens (Human), UniProt P16050)
Sequence (P16050 whole entry): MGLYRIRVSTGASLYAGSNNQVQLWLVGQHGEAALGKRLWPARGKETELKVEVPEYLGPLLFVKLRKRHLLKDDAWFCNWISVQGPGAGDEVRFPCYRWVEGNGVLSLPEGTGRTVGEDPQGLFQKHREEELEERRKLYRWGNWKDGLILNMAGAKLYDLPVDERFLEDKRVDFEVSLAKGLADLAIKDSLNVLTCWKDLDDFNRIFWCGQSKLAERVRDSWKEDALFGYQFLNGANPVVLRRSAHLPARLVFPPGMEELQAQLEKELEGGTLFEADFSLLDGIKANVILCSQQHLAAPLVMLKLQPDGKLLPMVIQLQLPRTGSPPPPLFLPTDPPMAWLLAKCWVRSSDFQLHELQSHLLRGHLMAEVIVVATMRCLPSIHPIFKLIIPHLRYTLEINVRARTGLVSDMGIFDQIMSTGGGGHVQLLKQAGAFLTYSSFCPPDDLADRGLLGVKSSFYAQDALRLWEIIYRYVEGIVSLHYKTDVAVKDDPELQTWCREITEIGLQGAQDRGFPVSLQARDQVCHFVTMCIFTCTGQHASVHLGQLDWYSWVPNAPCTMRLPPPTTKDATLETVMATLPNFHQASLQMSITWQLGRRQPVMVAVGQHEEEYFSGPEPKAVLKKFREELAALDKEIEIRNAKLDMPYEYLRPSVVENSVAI
Assay: 12/15-LOX enzyme inhibition IC50 assay (Examples 1 and 2)
Type: biochemical
Details: h12/15-LOX; read-out: Max % inhibition
Decide using Emax: a value greater than or equal to 80% is rule met, a smaller one is rule not met.

Consider the worked cases shown below.
* CNc1oc(-c2cc(C(F)(F)F)cc(Cl)c2Cl)nc1C#N | rule not met
* CC(C)OCCOCCNc1oc(-c2cc(Cl)cc(Cl)c2Cl)nc1C#N | rule met
* CNc1oc(-c2cc(Cl)cc(Cl)c2C)nc1C#N | rule met

Task: Quick check: does N#Cc1nc(-c2cc(Cl)cc(Cl)c2Cl)oc1NCCOCCNCCF have Emax greater than or equal to 80%?
Output: rule met
